Listing: IC50 of selected compounds
STUDY_SYSTEM: TEAD4 (Homo sapiens (Human))
Sequence (Q15561 whole entry, species assumed): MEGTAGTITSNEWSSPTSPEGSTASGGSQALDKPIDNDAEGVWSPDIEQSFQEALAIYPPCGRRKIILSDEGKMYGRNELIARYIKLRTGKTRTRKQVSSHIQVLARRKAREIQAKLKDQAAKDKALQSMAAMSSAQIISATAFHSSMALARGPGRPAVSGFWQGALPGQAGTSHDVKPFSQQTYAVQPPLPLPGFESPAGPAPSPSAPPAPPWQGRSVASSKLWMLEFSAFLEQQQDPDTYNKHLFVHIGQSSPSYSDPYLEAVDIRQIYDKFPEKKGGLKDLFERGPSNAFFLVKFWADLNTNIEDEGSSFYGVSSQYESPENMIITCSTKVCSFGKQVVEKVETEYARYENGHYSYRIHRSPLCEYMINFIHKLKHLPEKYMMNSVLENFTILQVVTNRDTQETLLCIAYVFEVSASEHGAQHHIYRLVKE
PROTOCOL_TEXT: TEAD lipid pocket TR-FRET (Lipid HTRF) probe competition assay
Format: binding
EXPERIMENTAL_SETUP: 30 mins incubation with compound; read-out: Lipid HTRF TEAD4 IC50
Write the answer as a number in nM, unit excluded.

In [3]: df
Out[3]:
                         compound_structure                  study_system  readout_unit  value_measured
0  C=C(CNc1cc(-c2c(F)cc(C(C)C)cc2F)c2c(c1C#N)CCO2)C(=O)O  TEAD4 (Homo sapiens (Human))            nM             320
1  C=C(CN(C)c1cc(-c2ccc(C(C)C)cc2)c2c(c1C#N)CCO2)C(=O)O  TEAD4 (Homo sapiens (Human))            nM             160
2  C=C(CNc1cnc(OC)c(/C=C/[C@H]2CC[C@H](C(F)(F)F)CC2)c1)C(=O)O  TEAD4 (Homo sapiens (Human))            nM             140
3  C=C(CNc1cc(-c2ccc(C(C)C)cc2)c2c(c1F)CCO2)C(=O)O  TEAD4 (Homo sapiens (Human))            nM              20

Item `C=C(CNc1cc(-c2ccc(C(C)C)cc2)c2c(c1CO)CCO2)C(=O)NO` has what recorded IC50?
420

Item `C=C(CNc1nc2c(c(-c3ccc(C(C)C)cc3)n1)OCC2)C(=O)O` has what recorded IC50?
20

====

STUDY_SYSTEM: TEAD2 YAP50-100 (Homo sapiens (Human))
Sequence (Q15562 217-447): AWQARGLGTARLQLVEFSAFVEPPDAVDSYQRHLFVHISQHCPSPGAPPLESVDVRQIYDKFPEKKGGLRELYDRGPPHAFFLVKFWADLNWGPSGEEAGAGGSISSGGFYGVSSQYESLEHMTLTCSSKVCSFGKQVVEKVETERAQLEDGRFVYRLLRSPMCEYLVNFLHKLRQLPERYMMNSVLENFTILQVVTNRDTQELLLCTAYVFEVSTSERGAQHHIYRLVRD
PROTOCOL_TEXT: TEAD-YAP protein-protein interaction HTRF assay
EXPERIMENTAL_SETUP: TEAD2 YAP50-100 HTRF combined EC50, 30 mins incubation with compound
pEC50: −log10 of the molar value.
Please mark Fulfilled if the recorded pEC50 is equal to or greater than 7, and Not fulfilled if it falls below.

>>> df
                                   compound                            study_system  assigned_label
0  C=C(CNc1cc(-c2ccc(C(C)C)cc2)c2c(c1F)CCO2)C(=O)O [Compound 21]  TEAD2 YAP50-100 (Homo sapiens (Human))       Fulfilled
1  C=C(CNc1cc(-c2c(F)cc(C(C)C)cc2F)c2c(c1C#N)CCO2)C(=O)O [Compound 28]  TEAD2 YAP50-100 (Homo sapiens (Human))   Not fulfilled
2  C=C(CNc1cc(-c2ccc(C(C)C)cc2)c2c(c1CO)CCO2)C(=O)O [Compound 12]  TEAD2 YAP50-100 (Homo sapiens (Human))   Not fulfilled
3  C=C(CNc1nc2c(c(-c3ccc(C(C)C)cc3)n1)OCC2)C(=O)O [Compound 20]  TEAD2 YAP50-100 (Homo sapiens (Human))       Fulfilled

Decide: pEC50 of C=C(CNc1cc(-c2ccc(C(C)C)cc2F)c2c(c1C#N)CCO2)C(=O)O [Compound 30] >= 7?
Fulfilled

Decide: pEC50 of C=C(CNc1cc(-c2ccc(C(C)C)cc2)c2c(c1C#N)CCO2)C(=O)NC [Compound 5] >= 7?
Not fulfilled

Decide: pEC50 of C=C(CNc1cc(-c2ccc(C(C)C)cc2)c2c(c1C#N)CCO2)C(N)=O [Compound 4] >= 7?
Fulfilled

Decide: pEC50 of C=C(CNc1cc(-c2ccc(C(C)C)cc2)c2c(c1C#N)CCO2)C(=O)OC [Compound 8] >= 7?
Not fulfilled

Decide: pEC50 of C=C(CN(C)c1cc(-c2ccc(C(C)C)cc2)c2c(c1C#N)CCO2)C(=O)O [Compound 7] >= 7?
Not fulfilled

Decide: pEC50 of C=C(CNc1cnc(OC)c(/C=C/[C@H]2CC[C@H](C(F)(F)F)CC2)c1)C(=O)O [Compound 25] >= 7?
Not fulfilled

Decide: pEC50 of C=C(CNc1cc(-c2ccc(C(C)(F)F)cc2)c2ncsc2c1C#N)C(=O)O [Compound 24] >= 7?
Not fulfilled

Decide: pEC50 of C=C(CNc1cc(-c2ccc(C(C)C(F)(F)F)cc2)c2c(c1C#N)CCO2)C(=O)O (single isomer, unassigned) [Enantiomer C from Example 16] >= 7?
Fulfilled

Decide: pEC50 of C=C(CNc1cc(-c2ccc(C(F)(F)F)cc2)c2c(c1C#N)CCO2)C(=O)O [Compound 15] >= 7?
Not fulfilled

Decide: pEC50 of C=C(CNc1cc(-c2ccc(C(C)C)cn2)c2c(c1C#N)CCO2)C(=O)O [Compound 47] >= 7?
Not fulfilled

Decide: pEC50 of C=C(CNc1cc(-c2ccc(C(C)C)cc2)c2c(c1C#N)CCO2)B(O)O [Compound 10] >= 7?
Not fulfilled

Decide: pEC50 of C=C(CNc1cc(-c2ccc(OC(F)(F)F)cc2)c2ncsc2c1C#N)C(N)=O [Compound 42] >= 7?
Not fulfilled

====

STUDY_SYSTEM: TEAD3 (Homo sapiens (Human), UniProt Q99594)
Sequence (Q99594 whole entry, species assumed): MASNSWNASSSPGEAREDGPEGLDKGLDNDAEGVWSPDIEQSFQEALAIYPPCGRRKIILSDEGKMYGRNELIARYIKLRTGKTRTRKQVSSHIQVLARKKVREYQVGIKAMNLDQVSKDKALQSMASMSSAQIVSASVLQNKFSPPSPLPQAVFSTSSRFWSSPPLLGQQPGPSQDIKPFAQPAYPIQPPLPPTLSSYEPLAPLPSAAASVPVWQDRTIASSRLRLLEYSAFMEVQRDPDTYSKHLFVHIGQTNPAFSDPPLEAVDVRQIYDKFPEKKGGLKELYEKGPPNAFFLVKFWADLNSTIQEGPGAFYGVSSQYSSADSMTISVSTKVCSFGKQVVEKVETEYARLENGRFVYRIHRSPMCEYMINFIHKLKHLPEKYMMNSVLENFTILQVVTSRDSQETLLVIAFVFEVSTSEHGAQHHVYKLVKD
PROTOCOL_TEXT: TEAD lipid pocket TR-FRET (Lipid HTRF) probe competition assay
Format: binding
EXPERIMENTAL_SETUP: 30 mins incubation with compound
QUANTITY: IC50 (µM)
Write the answer as a number in µM, unit excluded.

Below are worked cases with known answers.
>>> df
                         compound_structure  quantity  value_measured
0  C=C(CNc1cc(-c2ccc(C(F)(F)F)cc2)c2c(c1C#N)CCO2)C(=O)O      IC50             3.4
1  C=C(CNc1cc(-c2c(F)cc(C(C)C)cc2F)c2c(c1C#N)CCO2)C(=O)O      IC50              16
2  C=C(CNc1cc(-c2ccc(C(C)C)cc2)c2c(c1C#N)CCO2)C(=O)O      IC50            2.88

Item `C=C(CNc1cnc(OC)c(/C=C/[C@H]2CC[C@H](C(F)(F)F)CC2)c1)C(=O)O` has what recorded IC50?
1.25

====

STUDY_SYSTEM: TEAD3 YAP50-100 (Homo sapiens (Human), UniProt Q99594)
PROTOCOL_TEXT: TEAD-YAP protein-protein interaction HTRF assay
EXPERIMENTAL_SETUP: TEAD3 YAP50-100 HTRF combined EC50, 30 mins incubation with compound
pEC50: −log10 of the molar value.
QUANTITY: pEC50

In [3]: df
Out[3]:
                                   molecule                              study_system  quantity  value_measured
0  C=C(CNc1cc(-c2ccc(C(C)C)cc2)c2c(c1C#N)CCO2)B(O)O [Compound 10]  TEAD3 YAP50-100 (Homo sapiens (Human), UniProt Q99594)     pEC50          < 4.30
1  C=C(CNc1cc(-c2ccc(C(C)C)cc2)c2c(c1C#N)CCO2)C(=O)N(C)C [Compound 6]  TEAD3 YAP50-100 (Homo sapiens (Human), UniProt Q99594)     pEC50          < 4.30

Turning to the following molecule.
Fill in the recorded pEC50 for this molecule, with TEAD3 YAP50-100 (Homo sapiens (Human), UniProt Q99594) as test system: C=C(CNc1cc(-c2ccc(C(C)C)cc2)c2c(c1C#N)CCO2)C(=O)OC [Compound 8]
< 4.30

====

STUDY_SYSTEM: TEAD4 YAP50-100 (Homo sapiens (Human))
Sequence (Q15561 217-434): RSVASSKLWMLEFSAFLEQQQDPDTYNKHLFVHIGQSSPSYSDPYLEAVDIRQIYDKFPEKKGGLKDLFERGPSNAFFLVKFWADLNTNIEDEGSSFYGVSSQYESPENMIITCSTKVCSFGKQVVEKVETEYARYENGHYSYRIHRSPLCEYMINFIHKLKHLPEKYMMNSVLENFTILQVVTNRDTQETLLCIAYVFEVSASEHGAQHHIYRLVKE
PROTOCOL_TEXT: TEAD-YAP protein-protein interaction HTRF assay
EXPERIMENTAL_SETUP: TEAD4 YAP50-100 HTRF combined EC50, 30 mins incubation with compound
Procedure: Purified His-tagged TEAD protein (YAP Binding Domain, amino acids 217-447) is pre-incubated with Europium labelled anti-His antibody tracer (Perkin Elmer Cat #AD0110). […] After 60 minutes, the plate is read on a plate reader using TR-FRET mode with wavelengths of 665 nm/615 nm. […] The potency of compounds as YAP:TEAD or TAZ:TEAD protein-protein interaction (PPi) inhibitors is determined by an IC50 or EC50 value generated using a non-linear four parameter curve fit. […]
QUANTITY: EC50 (nM)
Write the answer as a number in nM, unit excluded.

>>> print(df.to_string())
                                   compound  quantity  value_measured
0  C=C(CNc1cc(-c2ccc(C(C)C(F)(F)F)cc2)c2c(c1C#N)CCO2)C(=O)O (single isomer, unassigned) [Enantiomer D from Example 16]      EC50             100
1  C=C(CNc1cc(-c2ccc(C(C)C)cc2F)c2c(c1C#N)CCO2)C(=O)O      EC50              40
2  C=C(CNc1cc(-c2ccc(C(C)C)cc2)c2c(c1C#N)CCO2)C(N)=O      EC50             160
3  C=C(CNc1cc(-c2ccc(C(C)C)cc2)c2c(c1C#N)CCO2)C(=O)NO      EC50             280
4  C=C(CNc1cc(-c2ccc(C(C)C)cc2)c2c(c1F)CCO2)C(=O)O      EC50              30

Item `C=C(CNc1nc(-c2ccc(C(C)C)cc2)c2c(c1C#N)CCO2)C(=O)O` has what recorded EC50?
100
